tested on: MOLT-4 leukemia; assay: NCI-60 one-dose screen, 48 h (100 = growth as untreated, 0 = no growth, -100 = all killed); details: 10 µM unless noted
The panel holds about 83,000 compounds, 20% with a hit somewhere; the sample as a whole holds those more often.
# label = Yes if growth >= 30% else No

Prompt line: For this compound, is measured growth 30% or higher? COc1ccc(/C(C)=C(/c2ccc(OCCCN(C)C)cc2)c2ccc(OC(=O)c3ccccc3)cc2)cc1
Response line: Yes

Prompt line: Try O=C1NC(=O)/C(=C/c2c(-c3ccccc3)nc3sc(COc4ccccc4)nn23)S1 next.
Response line: Yes

Prompt line: Try CC1=C(C(=O)Nc2nc(-c3ccc(Cl)cc3)cs2)[C@H](c2ccc(O)cc2)NC(=O)N1 next.
Response line: Yes

Prompt line: Try c1ccc(CCNc2c3ccccc3nc3ccccc23)cc1 next.
Response line: No

Prompt line: Try O=C(CSc1nc(-c2ccccc2)cc(=O)[nH]1)Nc1nc(-c2ccccc2)cs1 next.
Response line: No

Prompt line: Try Cc1cccc(Oc2ccc(Nc3ncnc4ccc(NC(=O)CN5CCN(C)CC5)cc34)cc2Cl)c1 next.
Response line: No

Prompt line: Try COc1cc(C2C(C(=O)OCc3ccccc3)=C(C)NC(C)=C2C(=O)OCc2ccccc2)cc(OC)c1OC next.
Response line: No

Prompt line: Try COc1ccc2cc(-c3ccnc4c(N=Nc5ccc(Cl)cc5)c(N)nn34)ccc2c1 next.
Response line: Yes

Prompt line: Try Cn1cc(-c2ccc(-c3cn(C)c4ccc(Cl)cc34)[nH]2)c2cc(Cl)ccc21 next.
Response line: No

Prompt line: Try COc1ccc2c(c1)CCc1[nH]nc(-c3cc(OC)c(OC)c(OC)c3)c1-2 next.
Response line: No

Prompt line: Try Cc1ccc(-c2csc(N(C(=O)N3CCN(c4cc5c(cc4F)c(=O)c(C(=O)O)cn5C4CC4)CC3)c3ccccc3)n2)cc1 next.
Response line: No

Prompt line: Try NNCCc1ccc(NC(=O)CCCc2ccc(C(=O)Nc3ccccc3N)cc2)cc1 next.
Response line: No

Prompt line: Try O=C(O)c1cn(C2CC2)c2cc(N3CCN(C(=O)Nc4nc(-c5ccc(Br)cc5)cs4)CC3)c(F)cc2c1=O next.
Response line: No

Prompt line: Try COc1ccccc1C(=O)Nc1cccc(NC(=O)c2ccoc2C)c1 next.
Response line: No

Prompt line: Try FC(F)(F)c1ccc(Cn2cc(CSc3nc4ccccc4s3)nn2)cc1 next.
Response line: Yes

Prompt line: Try O=C(CSc1nnc(-c2cc(-c3ccccc3)nc3ccccc23)n1-c1ccccc1)Nc1ccc(C(=O)/C=C/c2ccc(Cl)cc2)cc1 next.
Response line: Yes

Prompt line: Try CCOc1ccc(-n2nc(C(=O)NCc3ccccc3OC)nc2-c2cc(OC)c(OC)c(OC)c2)cc1 next.
Response line: No

Prompt line: Try O=C(O)/C=C/C(=O)Nc1cccc(Cn2nnc3cc(Cl)c(Cl)cc32)c1 next.
Response line: Yes

Prompt line: Try O=C1Nc2c(C(=O)O)cccc2/C1=N/c1n[nH]c(=S)s1 next.
Response line: Yes

Prompt line: Try C#CCNC(=O)[C@]1(C)CCC[C@@]2(C)[C@H]1CC=C1C=C(C(C)C)CC[C@@H]12 next.
Response line: Yes

Prompt line: Try Cc1ccc(S(=O)(=O)Oc2ccc3sc4cccc(NCCN(C)C)c4c(=O)c3c2)cc1 next.
Response line: No

Prompt line: Try COc1ccc(C(=O)/C=C/c2ccc(N3CCCCC3)cc2)cc1OC next.
Response line: Yes

Prompt line: Try CC1(C)CC2=C3C=C[C@@H]4[C@@]5(C)CCC(=O)C(C)(C)[C@@H]5CC[C@@]4(C)[C@]3(C)CC[C@@]2(C(=O)O)C[C@H]1O next.
Response line: No

Prompt line: Try O=c1ccc(=O)n(-c2nc(-c3ccc([N+](=O)[O-])cc3)cs2)[nH]1 next.
Response line: Yes

Prompt line: Try O=S(=O)(NCCNc1nccc(-c2c(-c3cccc(O)c3)nc3occn23)n1)c1ccc(Br)cc1 next.
Response line: No

Prompt line: Try CCc1ccc(CCC(=O)Nc2ncc(Cc3ccccc3)s2)o1 next.
Response line: No

Prompt line: Try COc1ccc2c(c1)c(-c1nc(-c3c[nH]c4ncccc34)cs1)cn2CCO next.
Response line: Yes

Prompt line: Try COc1cccc(CCNc2ncnc3c2ncn3Cc2nnc3c4ccccc4c(Cl)nn23)c1 next.
Response line: No

Prompt line: Try Cc1ccc(/C=C/C(=O)Nc2ncc(Cc3ccc(F)cc3)s2)o1 next.
Response line: Yes

Prompt line: Try O=C(CN1CCN(c2cc3c(cc2F)c(=O)c(C(=O)O)cn3C2CC2)CC1)N/N=C/c1ccco1 next.
Response line: Yes

Prompt line: Try CN(C)c1ccc(/C=C(\C#N)c2cc3ccccc3[nH]2)cc1 next.
Response line: Yes

Prompt line: Try CCCCNC(=O)c1cc([N+](=O)[O-])cc(C2CCCCC2)c1O next.
Response line: No

Prompt line: Try CCN(CC)CCN1C(=O)c2c(c(C)c3c(oc4ccc(OC)cc43)c2C)C1=O next.
Response line: Yes

Prompt line: Try O=C1/C(=C\c2ccccn2)c2ccccc2N1c1c(Cl)cccc1Cl next.
Response line: No

Prompt line: Try N=c1c(S(=O)(=O)c2ccccc2)cc2c(=O)n3ccccc3nc2n1CC1CCCO1 (centres undefined) next.
Response line: Yes

Prompt line: Try CC1CCN(C(=O)CCCl)c2ccccc21 (centres undefined) next.
Response line: Yes

Prompt line: Try CC(C)(C)n1cc(-c2ccnc(NCCNS(=O)(=O)c3ccc(O)cc3)c2)c(-c2cccc(O)c2)n1 next.
Response line: Yes

Prompt line: Try N=C(N)c1ccc(-c2ccc(-c3ccccc3)s2)cc1 next.
Response line: No
